tested on: Hepatitis B virus; test: Antiviral activity against hepatitis B virus-infected human HepG2.2.15 cells assessed as inhibition of HBV surface antigen secretion; type: functional, organism-based; settings: HepG2 2.2.15
pIC50: −log10 of the molar value.
recordedMetric: pIC50

Ask | Report pIC50 from Hepatitis B virus testing of C[C@H](C[C@H](OC(=O)/C=C/c1ccccc1)[C@@H](OC(=O)/C=C/c1ccccc1)C(C)(C)O)C1=C2C[C@H](OC(=O)/C=C/c3ccccc3)[C@H]3[C@@]4(C)CCC(=O)C(C)(C)[C@@H]4CC[C@]3(C)[C@@]2(C)CC1
Reply | < 2.85

Ask | Report pIC50 from Hepatitis B virus testing of CC(C)C(=O)O[C@@H](C[C@@H](C)[C@]12CC[C@@]3(C)[C@@]1(C[C@H](OC(=O)C(C)C)[C@H]1[C@@]4(C)CCC(=O)C(C)(C)[C@@H]4CC[C@@]13C)O2)[C@@H](OC(=O)C(C)C)C(C)(C)O
Reply | < 2.72

Ask | Report pIC50 from Hepatitis B virus testing of CC(C)C(=O)O[C@@H](C[C@@H](C)C1=C2C[C@H](OC(=O)C(C)C)[C@H]3[C@@]4(C)CCC(=O)C(C)(C)[C@@H]4CC[C@]3(C)[C@@]2(C)CC1)[C@@H](OC(=O)C(C)C)C(C)(C)O
Reply | 2.77

Ask | Report pIC50 from Hepatitis B virus testing of C[C@H](C[C@H](OC(=O)c1ccccc1)[C@@H](OC(=O)c1ccccc1)C(C)(C)O)[C@]12CC[C@@]3(C)[C@@]1(C[C@H](OC(=O)c1ccccc1)[C@H]1[C@@]4(C)CCC(=O)C(C)(C)[C@@H]4CC[C@@]13C)O2
Reply | < 2.77

Ask | Report pIC50 from Hepatitis B virus testing of C[C@H](C[C@H](O)[C@@H](O)C(C)(C)O)C1=C2C[C@H](O)[C@H]3[C@@]4(C)CCCC(C)(C)[C@@H]4CC[C@]3(C)[C@@]2(C)CC1
Reply | 4.10

Ask | Report pIC50 from Hepatitis B virus testing of C[C@H](C[C@H](OC(=O)c1ccccc1)[C@@H](OC(=O)c1ccccc1)C(C)(C)O)C1=C2C[C@H](OC(=O)c3ccccc3)[C@H]3[C@@]4(C)CCC(=O)C(C)(C)[C@@H]4CC[C@]3(C)[C@@]2(C)CC1
Reply | < 2.82

Ask | Report pIC50 from Hepatitis B virus testing of CCC(=O)O[C@@H](C[C@@H](C)[C@]12CC[C@@]3(C)[C@@]1(C[C@H](OC(=O)CC)[C@H]1[C@@]4(C)CCC(=O)C(C)(C)[C@@H]4CC[C@@]13C)O2)[C@@H](OC(=O)CC)C(C)(C)O
Reply | < 2.92

Ask | Report pIC50 from Hepatitis B virus testing of C[C@H](C[C@H](O)[C@@H](O)C(C)(C)O)[C@]12CC[C@@]3(C)[C@@]1(C[C@H](O)[C@H]1[C@@]4(C)CCC(=O)C(C)(C)[C@@H]4CC[C@@]13C)O2
Reply | 4.35

Ask | Report pIC50 from Hepatitis B virus testing of C=C(C)[C@H](OC(=O)/C=C/c1ccccc1)[C@H](C[C@@H](C)C1=C2C[C@H](OC(=O)/C=C/c3ccccc3)[C@H]3[C@@]4(C)CCC(=O)C(C)(C)[C@@H]4CC[C@]3(C)[C@@]2(C)CC1)OC(=O)/C=C/c1ccccc1
Reply | < 2.74

# credit: ChEMBL document CHEMBL1155923
